- tgt: Muscarinic acetylcholine receptor M2 (Homo sapiens)
- Sequence (P08172 whole entry): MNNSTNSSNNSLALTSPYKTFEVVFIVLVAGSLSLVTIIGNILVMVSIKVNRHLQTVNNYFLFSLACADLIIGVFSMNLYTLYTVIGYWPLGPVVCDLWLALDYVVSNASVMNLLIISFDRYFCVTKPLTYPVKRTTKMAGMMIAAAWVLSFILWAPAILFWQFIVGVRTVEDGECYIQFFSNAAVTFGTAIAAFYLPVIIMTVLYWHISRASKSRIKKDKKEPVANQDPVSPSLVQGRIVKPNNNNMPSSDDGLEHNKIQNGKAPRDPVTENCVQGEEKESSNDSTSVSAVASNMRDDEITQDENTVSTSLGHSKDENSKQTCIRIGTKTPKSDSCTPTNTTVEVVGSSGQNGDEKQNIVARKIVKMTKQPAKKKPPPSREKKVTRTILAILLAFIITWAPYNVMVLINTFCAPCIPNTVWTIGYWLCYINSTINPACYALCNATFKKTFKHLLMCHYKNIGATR
- Type: functional, cell-based
observable: AC50

# COc1ccccc1OCC(O)COC(N)=O (centres undefined) with Muscarinic acetylcholine receptor M2 (Homo sapiens): AC50 is > 10 µM

Log: Muscarinic acetylcholine receptor M2 (Homo sapiens), compound CCN1CCC[C@H]1CNC(=O)c1cc(S(N)(=O)=O)ccc1OC [LEVOSULPIRIDE] , AC50 = > 10 µM

Let me check: CC(=O)c1ccc2c(c1)N(CCCN1CCN(CCO)CC1)c1ccccc1S2 , system Muscarinic acetylcholine receptor M2 (Homo sapiens), measured AC50 is > 10 µM

Let me check: CN[C@@H](C)[C@H](O)c1ccccc1 , system Muscarinic acetylcholine receptor M2 (Homo sapiens), measured AC50 is > 10 µM

Summary line: CCCC(CCC)C(=O)O[C@H]1C[C@H]2CC[C@@H](C1)[N+]2(C)C , Muscarinic acetylcholine receptor M2 (Homo sapiens), reported AC50 = 0.63 µM

I looked up O=C(Nc1ccccc1)OCC(CN1CCCCC1)OC(=O)Nc1ccccc1 (centres undefined) and its AC50 for Muscarinic acetylcholine receptor M2 (Homo sapiens) was > 30 µM

The observed AC50 for Nc1nc2ccc(OC(F)(F)F)cc2s1 when tested with Muscarinic acetylcholine receptor M2 (Homo sapiens) stands at > 30 µM

Per the reported Muscarinic acetylcholine receptor M2 (Homo sapiens) data, O=C(O)Cc1cn(-c2ccccc2)nc1-c1ccc(Cl)cc1 has AC50 of > 30 µM

Item CCC(C(=O)O)c1ccc(CC(C)C)cc1 (centres undefined) was tested on Muscarinic acetylcholine receptor M2 (Homo sapiens); the reported AC50 is > 30 µM

Entry C#C[C@]1(O)CC[C@H]2[C@@H]3CCC4=CCCC[C@@H]4[C@H]3CC[C@@]21C ; assay system Muscarinic acetylcholine receptor M2 (Homo sapiens); AC50 recorded at > 30 µM

The reported Muscarinic acetylcholine receptor M2 (Homo sapiens) AC50 of C1=Cc2cccc(OCC3CNCCO3)c2C1 (centres undefined) is > 30 µM

GET /values?item= CC(C)[N+](C)(CCC(C(N)=O)(c1ccccc1)c1ccccc1)C(C)C [ISOPROPAMIDE] &system= Muscarinic acetylcholine receptor M2 (Homo sapiens) returns AC50: 0.01 µM

GET /values?item= CC[C@H](C)C(=O)O[C@H]1C[C@H](O)C=C2C=C[C@H](C)[C@H](CC[C@@H](O)C[C@@H](O)CC(=O)O)[C@H]21 &system= Muscarinic acetylcholine receptor M2 (Homo sapiens) returns AC50: > 30 µM

Entry CCCC(=O)N1CCCN(c2nc(N)c3cc(OC)c(OC)cc3n2)CC1 , tested on Muscarinic acetylcholine receptor M2 (Homo sapiens), has a reported AC50 of > 30 µM

Form field, AC50 with Muscarinic acetylcholine receptor M2 (Homo sapiens), item CCC[C@@H]1C[C@@H](C(=O)N[C@@H]([C@H]2O[C@H](SC)[C@H](O)[C@@H](O)[C@H]2O)[C@H](C)Cl)N(C)C1 : > 10 µM

Measured on Muscarinic acetylcholine receptor M2 (Homo sapiens), OCCN1CCN(CCCN2c3ccccc3C=Cc3ccccc32)CC1 has a documented AC50 of > 30 µM

Recorded AC50 for C[N+](C)(C)CC(=O)O on Muscarinic acetylcholine receptor M2 (Homo sapiens) was > 30 µM

Form field AC50 for item CN1C(=O)CC(C)(c2ccccc2)C1=O (centres undefined) [METHSUXIMIDE] on Muscarinic acetylcholine receptor M2 (Homo sapiens): > 10 µM

The observed AC50 for N[C@@H](C(=O)N[C@@H]1C(=O)N2C(C(=O)O)=C(Cl)CS[C@H]12)c1ccccc1 [CEFACLOR ANHYDROUS] when tested with Muscarinic acetylcholine receptor M2 (Homo sapiens) stands at > 30 µM
